- STUDY_SYSTEM: artificial cell surface (ACS): biotinylated cell surface proteins from human mononuclear blood cells coupled to streptavidin-sepharose
- PROTOCOL: ACS affinity column adsorption of tryptic dHSA peptides, MALDI-TOF ms
Where no end group is shown, it is not given here. The star is where a group is joined. Cam = NC(=O)C*
REPORTED_METRIC: Per cent adsorbed (per cent adsorbed, printed as fraction)

# example entries with known answers
>>> print(df.to_string())
                                     binder  number
0  KVFDEFKPLVEEPQNLIKQ [HSA tryptic peptide residues 397-413 …]     0.6
1  ETYGEMADC(Cam)C(Cam)AK [HSA tryptic peptide residues 106-117 …]   -0.08
2  AAFTEC(Cam)C(Cam)QAADK [HSA tryptic peptide residues 187-198 …]    0.29
3  AVMDDFAAFVEK [HSA tryptic peptide residues 570-581 …]    0.23
4  QNC(Cam)ELFEQLGEYK [HSA tryptic peptide residues 414-426 …]     0.2

a. NECFLQHK (Cys alkylated with iodoacetamide (from dHSA)) [HSA tryptic peptide residues 123-130 NECFLQHK]
b. RPC(Cam)FSALEVDETYVPK [HSA tryptic peptide residues 509-524 …]
Lookup: Select one: a or b . Criterion: greater recorded Per cent adsorbed (per cent adsorbed, printed as fraction). Refer to your chosen item by its label in the answer.
Found: b
(b: 0.42, a: 0.22)
